Attribution: paper PMC10790229

# protocol.description: In vivo pharmacokinetic study in SD rats
# reported.conditions: Sprague-Dawley, rat, iv, 2 mg/kg
measure: AUC

Query: AUC; subject: Nc1ccc(S(=O)(=O)N2CCN(CC(=O)N[C@@H](Cc3cc(F)cc(F)c3)c3nc4ccccc4c(=O)n3-c3ccc(S(=O)(=O)N4CCOCC4)cc3)C(=O)C2)cc1
574 ng·h/mL

* * *

# Test system: HIV-1 IIIB
# protocol.description: Anti-HIV-1 activity in MT-4 cells
# Assay type: cell-based
# reported.conditions: Human immunodeficiency virus 1, IIIB, MT4, read-out: EC50 IIIB
measure: EC50 (nM)
Numbers only, in nM.

Completed entries (count: 2):
compound=Nc1ccc(S(=O)(=O)N2CCN(CC(=O)N[C@@H](Cc3cc(F)cc(F)c3)c3nc4ccccc4c(=O)n3-c3ccc(S(=O)(=O)N4CCOCC4)cc3)C(=O)C2)cc1 result=110
compound="COc1ccc(N(C)C(=O)[C@H](Cc2ccccc2)NC(=O)CN2CCN(S(=O)(=O)c3ccc(N)cc3)CC2=O)cc1 [11L, reference compound]" result=280

Query: EC50; subject: COc1ccc(-n2c([C@H](Cc3cc(F)cc(F)c3)NC(=O)CN3CCN(S(=O)(=O)c4ccc(N)cc4)CC3=O)nc3ccccc3c2=O)cc1
110

* * *

# protocol.description: in vitro
# reported.conditions: human, microsomes
Kindly state half-life for each of the entries shown.
Just the number plus its unit, please.

compound=Nc1ccc(S(=O)(=O)N2CCN(CC(=O)N[C@@H](Cc3cc(F)cc(F)c3)c3nc4ccccc4c(=O)n3-c3ccc(S(=O)(=O)N4CCOCC4)cc3)C(=O)C2)cc1 result="4.4 min"

Query: half-life; subject: COc1ccc(-n2c([C@H](Cc3cc(F)cc(F)c3)NC(=O)CN3CCN(S(=O)(=O)c4ccc(N)cc4)CC3=O)nc3ccccc3c2=O)cc1
9.7 min

* * *

# protocol.description: In vivo pharmacokinetic study in SD rats
# reported.conditions: Sprague-Dawley, rat, po, 20 mg/kg
measure: Tmax (min)
Numbers only, in min.

Query: Tmax; subject: Nc1ccc(S(=O)(=O)N2CCN(CC(=O)N[C@@H](Cc3cc(F)cc(F)c3)c3nc4ccccc4c(=O)n3-c3ccc(S(=O)(=O)N4CCOCC4)cc3)C(=O)C2)cc1 [21a2]
20

* * *

# Tested on: HIV-1 IIIB
# protocol.description: Anti-HIV-1 activity in MT-4 cells
# Format: cell-based
# reported.conditions: HIV-1 IIIB, MT-4 cells
measure: SI IIIB (CC50/EC50)

Your task in this section: give SI IIIB (CC50/EC50) for each listed record.
1. O=C(CN1CCN(S(=O)(=O)c2ccc([N+](=O)[O-])cc2)CC1=O)N[C@@H](Cc1ccccc1)c1nc2ccccc2c(=O)n1-c1ccc(S(=O)(=O)N2CCS(=O)(=O)CC2)cc1
2. COc1ccc(-n2c([C@H](Cc3cc(F)cc(F)c3)NC(=O)CN3CCN(S(=O)(=O)c4ccc(N)cc4)CC3=O)nc3cc(Cl)ccc3c2=O)cc1

>11.47
>1250.00

* * *

# protocol.description: Cytotoxicity in uninfected MT-4 cells
# Type: cell-based
# reported.conditions: human
measure: CC50

compound="Nc1ccc(S(=O)(=O)N2CCN(CC(=O)N[C@@H](Cc3cc(F)cc(F)c3)c3nc4ccccc4c(=O)n3-c3ccc(S(=O)(=O)N4CCOCC4)cc3)C(=O)C2)cc1 [21a2]" measure=CC50 result="> 152 µM"
compound="COc1ccc(N(C)C(=O)[C@H](Cc2ccccc2)NC(=O)CN2CCN(S(=O)(=O)c3ccc(N)cc3)CC2=O)cc1 [11L, reference compound]" measure=CC50 result="198 µM"
compound="COc1ccc(-n2c([C@H](Cc3cc(F)cc(F)c3)NC(=O)CN3CCN(S(=O)(=O)c4ccc(N)cc4)CC3=O)nc3ccccc3c2=O)cc1 [12a2]" measure=CC50 result="> 178 µM"

We next turn to a different compound, shown below.
Query: CC50; subject: COc1ccc(N(C)C(=O)[C@H](Cc2ccccc2)NC(=O)Cc2c(C)[nH]c3ccccc23)cc1 [PF74, reference compound]
> 294 µM

* * *

# protocol.description: In vivo pharmacokinetic study in SD rats
# reported.conditions: Sprague-Dawley, rat, iv, 2 mg/kg
measure: Vd (L/kg)
One number for each entry, in L/kg.

Query: Vd; subject: Nc1ccc(S(=O)(=O)N2CCN(CC(=O)N[C@@H](Cc3cc(F)cc(F)c3)c3nc4ccccc4c(=O)n3-c3ccc(S(=O)(=O)N4CCOCC4)cc3)C(=O)C2)cc1
2.58

* * *

Kindly state SI ROD (CC50/EC50) for each of the entries shown.
# Test system: HIV-2 ROD
# protocol.description: Anti-HIV-2 activity in MT-4 cells
# Type: cell-based
# reported.conditions: HIV-2 ROD, MT-4 cells

molecule=Nc1ccc(S(=O)(=O)N2CCN(CC(=O)N[C@@H](Cc3cc(F)cc(F)c3)c3nc4ccccc4c(=O)n3-c3ccc(S(=O)(=O)N4CCOCC4)cc3)C(=O)C2)cc1 tested_target="HIV-2 ROD" measure="SI ROD (CC50/EC50)" result=>1923.08
molecule=COc1ccc(-n2c([C@H](Cc3cc(F)cc(F)c3)NC(=O)CN3CCN(S(=O)(=O)c4ccc(N)cc4)CC3=O)nc3cc(F)ccc3c2=O)cc1 tested_target="HIV-2 ROD" measure="SI ROD (CC50/EC50)" result=>1488.10
molecule=O=C(CN1CCN(S(=O)(=O)c2ccc([N+](=O)[O-])cc2)CC1=O)N[C@@H](Cc1ccccc1)c1nc2ccccc2c(=O)n1-c1ccc(S(=O)(=O)N2CCS(=O)(=O)CC2)cc1 tested_target="HIV-2 ROD" measure="SI ROD (CC50/EC50)" result=>198.41
molecule=COc1ccc(-n2c([C@H](Cc3ccccc3)NC(=O)CN3CCN(S(=O)(=O)c4ccc([N+](=O)[O-])cc4)CC3=O)nc3cc(Br)ccc3c2=O)cc1 tested_target="HIV-2 ROD" measure="SI ROD (CC50/EC50)" result=>446.43
molecule="COc1ccc(N(C)C(=O)[C@H](Cc2ccccc2)NC(=O)Cc2c(C)[nH]c3ccccc23)cc1 [PF74, reference compound]" tested_target="HIV-2 ROD" measure="SI ROD (CC50/EC50)" result=>77.64

We next turn to a different molecule, shown below.
Query: SI ROD (CC50/EC50); subject: COc1ccc(-n2c([C@H](Cc3ccccc3)NC(=O)CN3CCN(S(=O)(=O)c4ccc([N+](=O)[O-])cc4)CC3=O)nc3cc(S(C)(=O)=O)ccc3c2=O)cc1
>500.00

* * *

# protocol.description: in vitro
# reported.conditions: human, microsomes, % Remaining (T = 60 min)
measure: remaining at 1 h (%)
Answers are plain numbers, in %.

compound="COc1ccc(-n2c([C@H](Cc3cc(F)cc(F)c3)NC(=O)CN3CCN(S(=O)(=O)c4ccc(N)cc4)CC3=O)nc3ccccc3c2=O)cc1 [12a2]" measure="remaining at 1 h" result=1.1

We next turn to a different compound, shown below.
Query: remaining at 1 h; subject: Nc1ccc(S(=O)(=O)N2CCN(CC(=O)N[C@@H](Cc3cc(F)cc(F)c3)c3nc4ccccc4c(=O)n3-c3ccc(S(=O)(=O)N4CCOCC4)cc3)C(=O)C2)cc1 [21a2]
0.2

* * *

# Test system: HIV-2 ROD
# protocol.description: Anti-HIV-2 activity in MT-4 cells
# Type: cell-based
# reported.conditions: HIV-2 ROD, MT-4 cells
Kindly state SI ROD (CC50/EC50) for each of the entries shown.

molecule="COc1ccc(-n2c([C@H](Cc3cc(F)cc(F)c3)NC(=O)CN3CCN(S(=O)(=O)c4ccc(N)cc4)CC3=O)nc3cc(Cl)ccc3c2=O)cc1 [12c2]" result=>2083.33

Your task in this section: give SI ROD (CC50/EC50) for each listed record.
1. COc1ccc(-n2c([C@H](Cc3ccccc3)NC(=O)CN3CCN(S(=O)(=O)c4ccc([N+](=O)[O-])cc4)CC3=O)nc3cc(Cl)ccc3c2=O)cc1 [11c1]
2. O=C(CN1CCN(S(=O)(=O)c2ccc([N+](=O)[O-])cc2)CC1=O)N[C@@H](Cc1ccccc1)c1nc2ccccc2c(=O)n1-c1ccc(S(=O)(=O)N2CCOCC2)cc1 [20a1]

>403.23
>416.67

* * *

# protocol.description: in vitro
# reported.conditions: human, microsomes
measure: CLint scaled (mL/min/kg)
Give bare numbers, in mL/min/kg.

compound=COc1ccc(-n2c([C@H](Cc3cc(F)cc(F)c3)NC(=O)CN3CCN(S(=O)(=O)c4ccc(N)cc4)CC3=O)nc3ccccc3c2=O)cc1 result=129

We next turn to a different molecule, shown below.
Query: CLint scaled; subject: Nc1ccc(S(=O)(=O)N2CCN(CC(=O)N[C@@H](Cc3cc(F)cc(F)c3)c3nc4ccccc4c(=O)n3-c3ccc(S(=O)(=O)N4CCOCC4)cc3)C(=O)C2)cc1
282
